A short record of Ki observed with UniProt P37288 follows.
Sequence (P37288 whole entry): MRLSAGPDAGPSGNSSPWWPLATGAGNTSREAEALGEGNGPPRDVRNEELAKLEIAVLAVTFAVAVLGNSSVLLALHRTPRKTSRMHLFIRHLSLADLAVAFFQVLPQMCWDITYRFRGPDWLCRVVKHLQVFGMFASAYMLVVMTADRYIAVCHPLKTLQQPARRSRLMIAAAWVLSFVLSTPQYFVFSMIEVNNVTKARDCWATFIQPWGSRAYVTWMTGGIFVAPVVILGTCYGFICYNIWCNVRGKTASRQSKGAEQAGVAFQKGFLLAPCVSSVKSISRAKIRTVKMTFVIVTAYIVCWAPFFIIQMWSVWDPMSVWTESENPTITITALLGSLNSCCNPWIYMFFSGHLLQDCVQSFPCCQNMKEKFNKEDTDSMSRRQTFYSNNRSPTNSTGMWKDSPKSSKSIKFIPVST
Counter-ions that a name gives are not always drawn.
The reply should contain only the number, in nM.

Below, 7 compounds whose answers are already recorded.
CC(C)N1Cc2cc(Cl)ccc2-n2c(nnc2C2CCN(c3ccccn3)CC2)C1 [Example 6, trihydrochloride] ... 2.37
CN(C)CC(=O)N1Cc2cc(Cl)ccc2-n2c(nnc2C2CCN(c3ccccn3)CC2)C1 ... 4.63
CN1Cc2cc(Cl)ccc2-n2c(nnc2C2CCN(c3ncccn3)CC2)C1 ... 13.9
Clc1ccc2c(c1)CN(c1ncccn1)Cc1nnc(C3CCN(c4ccccn4)CC3)n1-2 ... 2.33
O=C(N1CCOCC1)N1Cc2cc(Cl)ccc2-n2c(nnc2C2CCN(c3ccccn3)CC2)C1 ... 1.32
CN1CCOC(CN2Cc3cc(Cl)ccc3-n3c(nnc3C3CCN(c4ccccn4)CC3)C2)C1 (single isomer, unassigned) [Example 73] ... 6.84
CN1CCOC(CN2Cc3cc(Cl)ccc3-n3c(nnc3C3CCN(c4ccccn4)CC3)C2)C1 (single isomer, unassigned) [Example 74] ... 6.02

Fill in the blank: the reported Ki of `CS(=O)(=O)N1Cc2cc(Cl)ccc2-n2c(nnc2C2CCN(c3ncccn3)CC2)C1` is ____.
4.71

Reference source for all entries: patent US7119088B2
